- experiment description: Tumor homogenate activation efficiency, non-small cell lung cancer tissue (Examples 28, 37)
- Type: in vitro ADME
- setup conditions: pH 5.0, 37° C., 2 h; Table 10
Where a SMILES comes first, the peptide text is derived from it. The star is where a group is joined. NEt(2-(20S-CPT-7-yl)ethyl) = CCN(CCc1c2c(nc3ccccc13)-c1cc3c(c(=O)n1C2)COC(=O)[C@]3(O)CC)*; Belotecan = CC[C@@]1(O)C(=O)OCc2c1cc1n(c2=O)Cc2c-1nc1ccccc1c2CCN(C(C)C)*; X1 = CC[C@@]1(O)C(=O)OCc2c1cc1n(c2=O)Cc2c-1nc1ccccc1c2CCN(C1CCC1)*; X4 = CCCN(CCc1c2c(nc3ccccc13)-c1cc3c(c(=O)n1C2)COC(=O)[C@]3(O)CC)*; X5 = CC[C@@]1(O)C(=O)OCc2c1cc1n(c2=O)Cc2c-1nc1ccccc1c2CCN(CC(C)C)*; Propanoyl(3-maleimido) = O=C1C=CC(=O)N1CCC(=O)*; PEG6 = NCCOCCOCCOCCOCCOCCOCCC(=O)O
// 0 strictly below 80% in Percentage of release efficiency (%) Non-small cell lung cancer tissue (A549); 1 otherwise

molecule: CC[C@@]1(O)C(=O)OCc2c1cc1n(c2=O)Cc2c-1nc1ccccc1c2CCN(C(=O)[C@H](CC(C)C)NC(=O)[C@H](Cc1ccccc1)NC(=O)CNC(=O)CNC(=O)CCOCCOCCOCCOCCOCCOCCNC(=O)CCN1C(=O)C=CC1=O)C(C)C [MI-6PEG-GGFL-Belotecan] ({Propanoyl(3-maleimido)-PEG6}-GGFL-Belotecan)
assigned class: 0

molecule: CCCN(CCc1c2c(nc3ccccc13)-c1cc3c(c(=O)n1C2)COC(=O)[C@]3(O)CC)C(=O)[C@H](CC(C)C)NC(=O)[C@H](CC(N)=O)NC(=O)[C@H](C)NC(=O)[C@H](C)NC(=O)CCOCCOCCOCCOCCOCCOCCNC(=O)CCN1C(=O)C=CC1=O [MI-6PEG-AANL-D3] ({Propanoyl(3-maleimido)-PEG6}-AANL-X4)
assigned class: 0

molecule: CC[C@@]1(O)C(=O)OCc2c1cc1n(c2=O)Cc2c-1nc1ccccc1c2CCN(C(=O)[C@H](CC(C)C)NC(=O)[C@H](CC(N)=O)NC(=O)[C@H](C)NC(=O)[C@H](C)NC(=O)CCOCCOCCOCCOCCOCCOCCNC(=O)CCN1C(=O)C=CC1=O)C1CCC1 [MI-6PEG-AANL-D7] ({Propanoyl(3-maleimido)-PEG6}-AANL-X1)
assigned class: 0

molecule: CCN(CCc1c2c(nc3ccccc13)-c1cc3c(c(=O)n1C2)COC(=O)[C@]3(O)CC)C(=O)[C@H](CC(C)C)NC(=O)[C@H](CC(N)=O)NC(=O)[C@H](C)NC(=O)[C@H](C)NC(=O)CCOCCOCCOCCOCCOCCOCCNC(=O)CCN1C(=O)C=CC1=O [MI-6PEG-AANL-D2] ({Propanoyl(3-maleimido)-PEG6}-AANL-{NEt(2-(20S-CPT-7-yl)ethyl)})
assigned class: 0

molecule: CC[C@@]1(O)C(=O)OCc2c1cc1n(c2=O)Cc2c-1nc1ccccc1c2CCN(CC(C)C)C(=O)[C@H](CC(C)C)NC(=O)[C@H](CC(N)=O)NC(=O)[C@H](C)NC(=O)[C@H](C)NC(=O)CCOCCOCCOCCOCCOCCOCCNC(=O)CCN1C(=O)C=CC1=O [MI-6PEG-AANL-D5] ({Propanoyl(3-maleimido)-PEG6}-AANL-X5)
assigned class: 1

---

- experiment description: Tumor homogenate activation efficiency, colorectal cancer tissue (Example 37)
- Assay type: in vitro ADME
- setup conditions: pH 5.0, 37° C., 2 h; Table 10
- Method: Buffer preparation: 50 mM PH buffer (MES), 250 mM NaCl, pH adjusted to 5.0 with 0.5 M of sodium hydroxide. The polypeptide conjugate was prepared into a 1 mg/ml solution with pH 5.0 buffer, 100 μg of tumor tissue homogenate was added, (the tumor tissue homogenate was the homogenate of tumor tissues prepared with a Jingxin F6/10 handheld homogenizer), and the solution was placed at 37° C. for 2 h. […]
Where a SMILES comes first, the peptide text is derived from it. The star is where a group is joined. NEt(2-(20S-CPT-7-yl)ethyl) = CCN(CCc1c2c(nc3ccccc13)-c1cc3c(c(=O)n1C2)COC(=O)[C@]3(O)CC)*; Belotecan = CC[C@@]1(O)C(=O)OCc2c1cc1n(c2=O)Cc2c-1nc1ccccc1c2CCN(C(C)C)*; X2 = CCCCN(CCc1c2c(nc3ccccc13)-c1cc3c(c(=O)n1C2)COC(=O)[C@]3(O)CC)*; X8 = CC[C@@]1(O)C(=O)OCc2c1cc1n(c2=O)Cc2c-1nc1ccccc1c2CCN(C1CCCC1)*; X5 = CC[C@@]1(O)C(=O)OCc2c1cc1n(c2=O)Cc2c-1nc1ccccc1c2CCN(CC(C)C)*; X7 = CC[C@@]1(O)C(=O)OCc2c1cc1n(c2=O)Cc2c-1nc1ccccc1c2CCN(C)*; Propanoyl(3-maleimido) = O=C1C=CC(=O)N1CCC(=O)*; PEG6 = NCCOCCOCCOCCOCCOCCOCCC(=O)O
reported property: Percentage of release efficiency (%) Colorectal cancer tissue (colo320)

compound: CCCCN(CCc1c2c(nc3ccccc13)-c1cc3c(c(=O)n1C2)COC(=O)[C@]3(O)CC)C(=O)[C@H](CC(C)C)NC(=O)[C@H](CC(N)=O)NC(=O)[C@H](C)NC(=O)[C@H](C)NC(=O)CCOCCOCCOCCOCCOCCOCCNC(=O)CCN1C(=O)C=CC1=O [MI-6PEG-AANL-D4] ({Propanoyl(3-maleimido)-PEG6}-AANL-X2)
recorded value: 76.5
--
compound: CC[C@@]1(O)C(=O)OCc2c1cc1n(c2=O)Cc2c-1nc1ccccc1c2CCN(CC(C)C)C(=O)[C@H](CC(C)C)NC(=O)[C@H](CC(N)=O)NC(=O)[C@H](C)NC(=O)[C@H](C)NC(=O)CCOCCOCCOCCOCCOCCOCCNC(=O)CCN1C(=O)C=CC1=O [MI-6PEG-AANL-D5] ({Propanoyl(3-maleimido)-PEG6}-AANL-X5)
recorded value: 69.8
--
compound: CC[C@@]1(O)C(=O)OCc2c1cc1n(c2=O)Cc2c-1nc1ccccc1c2CCN(C(=O)[C@H](CC(C)C)NC(=O)[C@H](Cc1ccccc1)NC(=O)CNC(=O)CNC(=O)CCOCCOCCOCCOCCOCCOCCNC(=O)CCN1C(=O)C=CC1=O)C(C)C [MI-6PEG-GGFL-Belotecan] ({Propanoyl(3-maleimido)-PEG6}-GGFL-Belotecan)
recorded value: 83.1
--
compound: CCN(CCc1c2c(nc3ccccc13)-c1cc3c(c(=O)n1C2)COC(=O)[C@]3(O)CC)C(=O)[C@H](CC(C)C)NC(=O)[C@H](CC(N)=O)NC(=O)[C@H](C)NC(=O)[C@H](C)NC(=O)CCOCCOCCOCCOCCOCCOCCNC(=O)CCN1C(=O)C=CC1=O [MI-6PEG-AANL-D2] ({Propanoyl(3-maleimido)-PEG6}-AANL-{NEt(2-(20S-CPT-7-yl)ethyl)})
recorded value: 65
--
compound: CC[C@@]1(O)C(=O)OCc2c1cc1n(c2=O)Cc2c-1nc1ccccc1c2CCN(C)C(=O)[C@H](CC(C)C)NC(=O)[C@H](Cc1ccccc1)NC(=O)CNC(=O)CNC(=O)CCOCCOCCOCCOCCOCCOCCNC(=O)CCN1C(=O)C=CC1=O [MI-6PEG-GGFL-D1] ({Propanoyl(3-maleimido)-PEG6}-GGFL-X7)
recorded value: 86.7
--
compound: CC[C@@]1(O)C(=O)OCc2c1cc1n(c2=O)Cc2c-1nc1ccccc1c2CCN(C(=O)[C@H](CC(C)C)NC(=O)[C@H](CC(N)=O)NC(=O)[C@H](C)NC(=O)[C@H](C)NC(=O)CCOCCOCCOCCOCCOCCOCCNC(=O)CCN1C(=O)C=CC1=O)C1CCCC1 [MI-6PEG-AANL-D8] ({Propanoyl(3-maleimido)-PEG6}-AANL-X8)
recorded value: 78.9

---

- experiment description: Tumor homogenate activation efficiency, small cell lung cancer tissue (Example 28)
- Format: in vitro ADME
- setup conditions: pH 5.0, 37° C., 2 h; Table 5
Where a SMILES comes first, the peptide text is derived from it. The star is where a group is joined. X6 = CCCCCN(CCc1c2c(nc3ccccc13)-c1cc3c(c(=O)n1C2)COC(=O)[C@]3(O)CC)*; X3 = CC[C@@]1(O)C(=O)OCc2c1cc1n(c2=O)Cc2c-1nc1ccccc1c2CCN(C1CC1)*; Propanoyl(3-maleimido) = O=C1C=CC(=O)N1CCC(=O)*; PEG6 = NCCOCCOCCOCCOCCOCCOCCC(=O)O
As shown below, each of these compounds has a reported Percentage of release efficiency (%) Small cell lung cancer tissue (NCI-H841) value.
reported property: Percentage of release efficiency (%) Small cell lung cancer tissue (NCI-H841)

compound: CC[C@@]1(O)C(=O)OCc2c1cc1n(c2=O)Cc2c-1nc1ccccc1c2CCN(C(=O)CNC(=O)[C@H](Cc1ccccc1)NC(=O)CNC(=O)CNC(=O)CCOCCOCCOCCOCCOCCOCCNC(=O)CCN1C(=O)C=CC1=O)C1CC1 [MI-6PEG-GGFG-D6] ({Propanoyl(3-maleimido)-PEG6}-GGFG-X3)
recorded value: 72.1

compound: CCCCCN(CCc1c2c(nc3ccccc13)-c1cc3c(c(=O)n1C2)COC(=O)[C@]3(O)CC)C(=O)CNC(=O)[C@H](CC(N)=O)NC(=O)[C@H](C)NC(=O)[C@H](C)NC(=O)CCOCCOCCOCCOCCOCCOCCNC(=O)CCN1C(=O)C=CC1=O [MI-6PEG-AANG-D4] ({Propanoyl(3-maleimido)-PEG6}-AANG-X6)
recorded value: 67.2
